# Target Desc: T1, rat NPRA (rat, UniProt P18910 29-1057)
# T1 sequence (looked up): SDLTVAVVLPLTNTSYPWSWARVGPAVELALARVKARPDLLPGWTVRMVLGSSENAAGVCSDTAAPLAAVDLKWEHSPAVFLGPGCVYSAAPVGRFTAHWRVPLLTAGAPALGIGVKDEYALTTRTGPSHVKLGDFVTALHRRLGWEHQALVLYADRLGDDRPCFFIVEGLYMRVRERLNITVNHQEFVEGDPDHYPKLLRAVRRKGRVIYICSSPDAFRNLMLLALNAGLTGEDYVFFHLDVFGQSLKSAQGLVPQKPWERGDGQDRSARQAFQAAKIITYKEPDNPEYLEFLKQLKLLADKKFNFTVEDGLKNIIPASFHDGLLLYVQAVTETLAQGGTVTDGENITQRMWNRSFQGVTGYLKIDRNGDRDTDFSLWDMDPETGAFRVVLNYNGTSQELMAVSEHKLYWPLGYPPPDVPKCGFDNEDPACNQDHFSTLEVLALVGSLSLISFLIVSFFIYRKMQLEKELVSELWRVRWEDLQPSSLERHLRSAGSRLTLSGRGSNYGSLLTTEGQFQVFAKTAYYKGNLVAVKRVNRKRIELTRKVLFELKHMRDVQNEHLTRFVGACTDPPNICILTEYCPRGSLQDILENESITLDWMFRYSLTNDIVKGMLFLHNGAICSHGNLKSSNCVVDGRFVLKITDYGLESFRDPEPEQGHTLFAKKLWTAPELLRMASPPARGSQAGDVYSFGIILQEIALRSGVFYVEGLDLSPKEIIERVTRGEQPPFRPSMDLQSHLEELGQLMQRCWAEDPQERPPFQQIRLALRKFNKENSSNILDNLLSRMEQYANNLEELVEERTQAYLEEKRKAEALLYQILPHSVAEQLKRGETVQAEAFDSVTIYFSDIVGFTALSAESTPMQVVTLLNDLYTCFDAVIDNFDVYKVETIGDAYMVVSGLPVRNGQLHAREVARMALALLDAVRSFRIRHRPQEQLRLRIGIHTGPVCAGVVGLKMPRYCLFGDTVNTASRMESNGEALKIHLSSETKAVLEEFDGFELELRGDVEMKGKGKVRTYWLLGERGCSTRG
# Experimental Details: cell-based or functional assay
Numbered stars: 1 amine (or outer) side, 2 acyl side, 3 side chain; on linkers, the order of the positions; unused ones are H or OH. Bridge positions count the residues as written; N and C are the ends. * marks the point of attachment. thioacetal = thioacetal linkage between two cysteines (intrachain bond at the bracketed Cys); C20 diacid = O=C(O)CCCCCCCCCCCCCCCCCCC(=O)*; γGlu = O=C(O)[C@H](CCC(=O)[*:2])N[*:1]
Recorded cGMP Assay (EC50, pM) w/Casein, rNPRA, one value per entry.
Numeric answer only, unit pM assumed.

Known results for binders:
binder="SXRRSSCFGKRIDRIGHYSGLGCPSFRHGGKSSGAPPPS (N-terminus acylated with HOOC-(CH2)18-CO-(γGlu)-; PEG24 after EKEKEKG; 4Pal; thioacetal linkage between the two bracketed Cys; C-terminal amide) [HOOC-(CH2)18-CO-(γGlu)-EKEKEKG-PEG24-S-4Pal-RRSS[CFGKRIDRIGHYSGLGC]PSFRHGGKSSGAPPPS-NH2]" val=5320
binder="EKPRSSCFGKRIDRIGHYSGLGCPSFRHGSPSSGAPPPS (N-terminus acylated with HOOC-(CH2)18-CO-(γGlu)-; (AEEA)6 after EKEKEKG; thioacetal linkage between the two bracketed Cys; C-terminal amide) [HOOC-(CH2)18-CO-(γGlu)-EKEKEKG-(AEEA)6-EKPRSS[CFGKRIDRIGHYSGLGC]PSFRHGSPSSGAPPPS-NH2]" val=3770
binder="EKXRSSCFGKRIDRIGHYSGLGCPSFRHGSPSSGAPPPS (N-terminus acylated with HOOC-(CH2)18-CO-(γGlu)-; (AEEA)8 after EKEKEKG; βAla; thioacetal linkage between the two bracketed Cys; C-terminal amide) [HOOC-(CH2)18-CO-(γGlu)-EKEKEKG-(AEEA)8-EK-βAla-RSS[CFGKRIDRIGHYSGLGC]PSFRHGSPSSGAPPPS-NH2]" val=11200
binder="SXRRSSCFGKRIDRIGHYSGLGCPSFRHGSPSSGAPPPS (N-terminus acylated with HOOC-(CH2)18-CO-(γGlu)-; (AEEA)8 after EKEKEKG; 4Pal; thioacetal linkage between the two bracketed Cys; C-terminal amide) [HOOC-(CH2)18-CO-(γGlu)-EKEKEKG-(AEEA)8-S-4Pal-RRSS[CFGKRIDRIGHYSGLGC]PSFRHGSPSSGAPPPS-NH2]" val=3780
binder="{C20 diacid-γGlu}-EKEKEKGEKPRSSCFGKRIDRIGRYSGLGCPSFRHGSPSSGAPPPS-NH2 (bridge 14-30 via thioacetal) [HOOC-(CH2)18-CO-(γGlu)-EKEKEKGEKPRSS[CFGKRIDRIGRYSGLGC]PSFRHGSPSSGAPPPS-NH2]" val=41100

The record that follows has no cGMP Assay (EC50, pM) w/Casein, rNPRA shown yet.
State its cGMP Assay (EC50, pM) w/Casein, rNPRA: EKXRSSCFGKRIDRIGHYSGLGCPSFRHGSPSSGAPPPS (N-terminus acylated with HOOC-(CH2)18-CO-(γGlu)-; PEG24 after EKEKEKG; βAla; thioacetal linkage between the two bracketed Cys; C-terminal amide) [HOOC-(CH2)18-CO-(γGlu)-EKEKEKG-PEG24-EK-βAla-RSS[CFGKRIDRIGHYSGLGC]PSFRHGSPSSGAPPPS-NH2]
9630
